- assay-system: FGFR1 (Homo sapiens, UniProt P11362)
- Sequence (P11362 22-822): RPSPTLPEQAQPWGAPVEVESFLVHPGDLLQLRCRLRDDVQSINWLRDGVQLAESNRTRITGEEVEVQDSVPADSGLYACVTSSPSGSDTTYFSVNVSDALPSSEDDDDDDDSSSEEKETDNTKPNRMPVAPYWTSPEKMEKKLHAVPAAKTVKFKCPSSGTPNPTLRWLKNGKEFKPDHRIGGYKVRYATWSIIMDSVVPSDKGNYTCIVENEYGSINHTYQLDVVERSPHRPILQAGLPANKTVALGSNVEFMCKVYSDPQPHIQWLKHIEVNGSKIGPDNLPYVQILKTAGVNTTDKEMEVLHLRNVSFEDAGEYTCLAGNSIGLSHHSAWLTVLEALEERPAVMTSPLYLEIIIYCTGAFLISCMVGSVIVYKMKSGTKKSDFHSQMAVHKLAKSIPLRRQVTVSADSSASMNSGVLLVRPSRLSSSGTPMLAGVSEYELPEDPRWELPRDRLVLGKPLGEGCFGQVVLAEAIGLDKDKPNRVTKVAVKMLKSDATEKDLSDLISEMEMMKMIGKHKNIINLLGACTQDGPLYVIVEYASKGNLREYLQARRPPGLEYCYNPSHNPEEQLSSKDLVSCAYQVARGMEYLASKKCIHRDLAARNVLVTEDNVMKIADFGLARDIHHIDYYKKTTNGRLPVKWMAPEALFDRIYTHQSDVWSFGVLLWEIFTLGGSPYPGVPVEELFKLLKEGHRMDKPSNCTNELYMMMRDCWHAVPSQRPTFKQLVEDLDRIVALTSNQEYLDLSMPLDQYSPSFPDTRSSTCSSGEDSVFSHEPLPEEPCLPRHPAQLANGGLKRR
- assay-protocol: In vitro activity inhibition test for kinase FGFR1
endpoint-name: IC50

molecule: C=CC(=O)N1CCC(c2nc(N)c(C(N)=O)c(C#Cc3cc(OC)cc(OC)c3)n2)C1 (centres unmarked)
val: 10 to 100 nM
--
molecule: CC#CC(=O)N1CC[C@H](n2cc(C#Cc3cc(OC)cc(OC)c3)c3c(N)n[nH]c(=O)c32)C1
val: < 10 nM
--
molecule: CC#CC(=O)N1CC[C@H](n2cc(-c3ccc4ccccc4c3)c3c(N)n[nH]c(=O)c32)C1
val: < 10 nM
--
molecule: C=CC(=O)N1CC[C@H](Nc2nc(N)c(C(N)=O)c(C#Cc3cc(OC)cc(OC)c3)n2)C1
val: < 10 nM
--
molecule: C=CC(=O)N1CCC[C@H](n2nc(C#Cc3cc(OC)cc(OC)c3)c3c(N)n[nH]c(=O)c32)C1
val: < 10 nM

###

- assay-system: UniProt P11362
- assay-protocol: In vitro activity inhibition test for kinase FGFR1
As shown below, each of these compounds has a reported IC50 value.

compound: C=CC(=O)N1CCC[C@H](n2cc(C#Cc3cc(OC)cc(OC)c3)c3c(N)n[nH]c(=O)c32)C1
IC50: < 10 nM

compound: CC#CC(=O)N1CC[C@H](n2nc(C#Cc3cc(OC)cc(OC)c3)c3c(N)n[nH]c(=O)c32)C1
IC50: < 10 nM

compound: CC#CC(=O)N1CCC[C@H](n2cc(C#Cc3cc(OC)cc(OC)c3)c3c(N)n[nH]c(=O)c32)C1
IC50: < 10 nM

compound: C=CC(=O)N1CC[C@H](n2nc(C#Cc3cc(OC)cc(OC)c3)c3c(N)n[nH]c(=O)c32)C1
IC50: < 10 nM

compound: C=CC(=O)N1CC[C@@H](Nc2nc(N)c(C(N)=O)c(C#Cc3cc(OC)cc(OC)c3)n2)C1
IC50: < 10 nM

compound: C=CC(=O)N1CC[C@H](Nc2ncc(F)c(C#Cc3cc(OC)cc(OC)c3)n2)C1
IC50: 10 to 100 nM

compound: C=CC(=O)N1CC[C@H](n2nc(C#Cc3c(Cl)c(OC)cc(OC)c3Cl)c3c(N)n[nH]c(=O)c32)C1
IC50: < 10 nM

compound: C=CC(=O)N1CC[C@H](Nc2ncc(C(F)(F)F)c(C#Cc3cc(OC)cc(OC)c3)n2)C1
IC50: 10 to 100 nM

compound: CC#CC(=O)N1CC[C@H](Nc2nc(N)c(C(N)=O)c(C#Cc3cc(OC)cc(OC)c3)n2)C1
IC50: < 10 nM

compound: C=CC(=O)N1CC[C@H](Nc2nccc(C#Cc3cc(OC)cc(OC)c3)n2)C1
IC50: 10 to 100 nM

compound: CC#CC(=O)N1CCC[C@H](n2nc(C#Cc3cc(OC)cc(OC)c3)c3c(N)n[nH]c(=O)c32)C1
IC50: < 10 nM

compound: C=CC(=O)N1CC[C@H](n2cc(-c3cc4ccccc4o3)c3c(N)n[nH]c(=O)c32)C1
IC50: < 10 nM

compound: C=CC(=O)N1CC[C@H](Nc2ncc(Br)c(C#Cc3cc(OC)cc(OC)c3)n2)C1
IC50: 10 to 100 nM

compound: C=CC(=O)N1CC[C@H](n2nc(-c3cc4cc(C)cc(OC)c4s3)c3c(N)n[nH]c(=O)c32)C1
IC50: < 10 nM

compound: C=CC(=O)N1CCC2(CC(Nc3nc(N)c(C(N)=O)c(C#Cc4cc(OC)cc(OC)c4)n3)C2)C1 (stereo not drawn)
IC50: 100 to 500 nM

compound: C=CC(=O)N1CC2(CC(Nc3nc(N)c(C(N)=O)c(C#Cc4cc(OC)cc(OC)c4)n3)C2)C1
IC50: 10 to 100 nM

compound: C=CC(=O)N[C@H]1CCN(c2nc(N)c(C(N)=O)c(C#Cc3cc(OC)cc(OC)c3)n2)C1
IC50: < 10 nM

compound: C=CC(=O)N1CC[C@H](Nc2ncc(C(N)=O)c(C#Cc3cc(OC)cc(OC)c3)n2)C1
IC50: < 10 nM

compound: C=CC(=O)N1CC[C@H](n2cc(-c3cn(C)c4ccccc34)c3c(N)n[nH]c(=O)c32)C1
IC50: < 10 nM

compound: C=CC(=O)N1CCC2(CC1)CC(Nc1nc(N)c(C(N)=O)c(C#Cc3cc(OC)cc(OC)c3)n1)C2
IC50: 100 to 500 nM

compound: C=CC(=O)N1CC[C@H](n2cc(C#Cc3cc(OC)cc(OC)c3)c3c(N)n[nH]c(=O)c32)C1
IC50: < 10 nM

compound: C=CC(=O)N1CCC(Nc2nc(N)c(C(N)=O)c(C#Cc3cc(OC)cc(OC)c3)n2)CC1
IC50: 10 to 100 nM

compound: C=CC(=O)N1CC[C@H](n2cc(-c3cc4cc(C)cc(OC)c4s3)c3c(N)n[nH]c(=O)c32)C1
IC50: < 10 nM

compound: C=CC(=O)N1CC[C@H](n2nc(C#Cc3c(F)c(OC)cc(OC)c3F)c3c(N)n[nH]c(=O)c32)C1
IC50: < 10 nM

compound: CC#CC(=O)N1CC[C@H](Nc2ncc(Br)c(C#Cc3cc(OC)cc(OC)c3)n2)C1
IC50: 10 to 100 nM

compound: C=CC(=O)N1CCC[C@H](Nc2nc(N)c(C(N)=O)c(C#Cc3cc(OC)cc(OC)c3)n2)C1
IC50: 10 to 100 nM

compound: CC#CC(=O)N1CC[C@H](Nc2ncc(C(F)(F)F)c(C#Cc3cc(OC)cc(OC)c3)n2)C1
IC50: 10 to 100 nM

compound: C=CC(=O)N1CC[C@H](Nc2ncc(C#N)c(C#Cc3cc(OC)cc(OC)c3)n2)C1
IC50: 10 to 100 nM

compound: C=CC(=O)N1CC[C@H](n2cc(-c3ccc4ccccc4c3)c3c(N)n[nH]c(=O)c32)C1
IC50: < 10 nM

compound: C=CC(=O)N1CC[C@H](n2cc(-c3cc4ccccc4n3C)c3c(N)n[nH]c(=O)c32)C1
IC50: < 10 nM

Attribution: patent US20240109896A1
